# Target system: Tobacco 5-epi-aristolochene synthase (TEAS) (Nicotiana tabacum, UniProt Q40577)
# Sequence (Q40577 1-548): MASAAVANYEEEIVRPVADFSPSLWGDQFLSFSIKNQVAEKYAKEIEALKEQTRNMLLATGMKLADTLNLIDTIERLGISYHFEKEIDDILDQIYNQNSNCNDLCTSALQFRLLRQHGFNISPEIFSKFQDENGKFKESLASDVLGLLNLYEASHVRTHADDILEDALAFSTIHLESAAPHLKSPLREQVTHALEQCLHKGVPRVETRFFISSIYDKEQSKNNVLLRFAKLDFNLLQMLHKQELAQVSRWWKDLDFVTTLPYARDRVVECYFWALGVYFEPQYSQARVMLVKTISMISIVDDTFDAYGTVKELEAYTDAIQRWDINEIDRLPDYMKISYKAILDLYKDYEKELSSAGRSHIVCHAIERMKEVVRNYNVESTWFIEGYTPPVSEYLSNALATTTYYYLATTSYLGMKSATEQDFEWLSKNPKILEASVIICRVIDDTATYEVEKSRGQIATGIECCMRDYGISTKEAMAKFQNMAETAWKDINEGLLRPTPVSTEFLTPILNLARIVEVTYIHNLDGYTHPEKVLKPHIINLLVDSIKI
# Test description: TEAS activity assay (3H-FPP to 3H-5-epi-aristolochene, hexane partitioning)
# Condition label: recombinant TEAS, 3H-FPP substrate 0.2-10 μM, AGPP 0-150 μM, 5 min at 37° C.; read-out: Ki for the inhibition of TEAS activity
Quantity: pKi
Note on pKi: it is the negative log10 of concentration, concentration in mol/L.

Which measured pKi value corresponds to C/C(=C\COP(=O)(O)OP(=O)(O)O)CC/C=C(\C)CNc1ccccc1 [AGPP, 8-anilino-geranyl pyrophosphate] ?
5.23
